Provenance of the data: paper PMC6271011

- Test system: intracellular amastigotes of L. (V) panamensis
- assay_procedure: Leishmanicidal activity against intracellular amastigotes (GFP, flow cytometry, 72 h)
- Format: cell-based, Leishmania (Viannia) panamensis
- measurement_context: at 20 µg/mL, intracellular amastigotes, read-out: Leishmanicidal activity % Inhibition
metric: inhibition at 20 µg/mL (%)

| compound | metric | reported_value |
| --- | --- | --- |
| O=c1ccoc2cc(OCCCOc3cc(Cl)ccc3Oc3ccc(Cl)cc3Cl)ccc12 | inhibition at 20 µg/mL | 94.4 |
| COc1ccc(/C=C/C(=O)c2ccc(OCCCOc3cc(Cl)ccc3Oc3ccc(Cl)cc3Cl)cc2)cc1OC | inhibition at 20 µg/mL | 67.4 |
| COc1ccc(/C=C/C(=O)c2ccc(OCCCCOc3cc(Cl)ccc3Oc3ccc(Cl)cc3Cl)cc2)cc1OC | inhibition at 20 µg/mL | 67.8 |
| COc1ccc(/C=C/C(=O)c2ccc(OCCCCCOc3cc(Cl)ccc3Oc3ccc(Cl)cc3Cl)cc2)cc1OC | inhibition at 20 µg/mL | 69.5 |
| O=c1ccoc2cc(OCCCCCOc3cc(Cl)ccc3Oc3ccc(Cl)cc3Cl)ccc12 | inhibition at 20 µg/mL | 75.5 |
| Cc1cc(=O)oc2cc(O)ccc12 [7-Hydroxy-4-methylcoumarin (11), 7-hydroxy-4-methylcoumarin, reference compound] | inhibition at 20 µg/mL | 15.3 |
| Cc1cc(=O)oc2cc(OCCCCOc3cc(Cl)ccc3Oc3ccc(Cl)cc3Cl)ccc12 | inhibition at 20 µg/mL | 57.1 |
